- target.of.assay: T1, human MSLN-R3-3 polypeptide (human)
- T1 construct: Part of region R3 of human MSLN; also called hMSLN-R3-3; human MSLN-R3-3 protein
- protocol.notes: ELISA, coated antigen, antibody 0.1 nM
outcome.measure: OD450

Asked: Specify measured OD450 for S009-F4-94.15 chimeric antibody (antibody, human IgG1, kappa, V domains shown, Human-murine chimeric antibody: murine VH/VL on human IgG1 heavy and kappa light constant regions) VH: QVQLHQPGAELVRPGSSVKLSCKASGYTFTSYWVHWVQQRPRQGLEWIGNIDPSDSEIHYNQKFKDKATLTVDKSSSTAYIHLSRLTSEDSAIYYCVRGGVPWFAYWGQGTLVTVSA VL: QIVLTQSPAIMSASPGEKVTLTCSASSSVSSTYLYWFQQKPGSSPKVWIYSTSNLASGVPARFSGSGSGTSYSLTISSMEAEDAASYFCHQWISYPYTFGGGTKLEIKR .
Given back: 0.05

Asked: Look up OD450 of S009-F5-9.16 chimeric antibody (antibody, human IgG1, kappa, V domains shown, Human-murine chimeric antibody, human IgG1/kappa constant regions) VH: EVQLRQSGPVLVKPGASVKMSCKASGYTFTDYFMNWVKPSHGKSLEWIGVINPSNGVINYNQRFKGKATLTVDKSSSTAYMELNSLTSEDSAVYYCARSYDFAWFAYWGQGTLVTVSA VL: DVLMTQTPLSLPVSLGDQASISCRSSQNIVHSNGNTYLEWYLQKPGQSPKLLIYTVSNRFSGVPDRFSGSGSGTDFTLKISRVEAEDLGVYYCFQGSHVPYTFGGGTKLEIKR and report it.
Given back: 0.05
